test system: biotinyl-Met-oxazolone; experiment: self-aminoacylation, catalytic enhancement (BMO) (fold over background); higher = more active; k-Seq, kA / k0A0; sequences stand for … in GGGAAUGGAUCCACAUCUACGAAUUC…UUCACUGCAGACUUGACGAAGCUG
Fewer inactive variants are shown than the library holds.
RECORDED ENDPOINT: self-aminoacylation
API note: the answer field is a bare number with no unit suffix.

q: Need self-aminoacylation of AAGUUGGAUAAUAGUCGCAAG [Fam3.1 aminoacylation ribozyme variant] , thanks.
a: 1.11

q: Need self-aminoacylation of AAGUUUCCUAAUUGUCGCAAG [Fam3.1 aminoacylation ribozyme variant] , thanks.
a: 1.14

q: Need self-aminoacylation of AUUUACCGAGGUCAUCGGGUG [Fam2.2 aminoacylation ribozyme variant] , thanks.
a: 8.5

q: Need self-aminoacylation of CAACACUUCAAGCAACCGGUC [Fam1B.1 aminoacylation ribozyme variant] , thanks.
a: 1.12

q: Need self-aminoacylation of GUUCAUCUAGGUCAUCGGGUG [Fam2.2 aminoacylation ribozyme variant] , thanks.
a: 5.79

q: Need self-aminoacylation of CUACCUCAAACGAUCGGUCUG [Fam1A.1 aminoacylation ribozyme variant] , thanks.
a: 1

q: Need self-aminoacylation of CUACUUCCAACAGUCGGUCUG [Fam1A.1 aminoacylation ribozyme variant] , thanks.
a: 1.06

q: Need self-aminoacylation of AUUUACCUAGGUUAUCGGGUG [Fam2.2 aminoacylation ribozyme variant] , thanks.
a: 3.44

q: Need self-aminoacylation of AUUACCCCGGUCAUCGAGUGU [Fam2.1 aminoacylation ribozyme variant] , thanks.
a: 2.58

====

tested on: biotinyl-Met-oxazolone; test: self-aminoacylation, catalytic enhancement (BMO) (fold over background); higher = more active; k-Seq, kA / k0A0; sequences stand for … in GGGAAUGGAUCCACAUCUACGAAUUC…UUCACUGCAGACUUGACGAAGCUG
Variants at the floor of the assay were thinned out.
RECORDED ENDPOINT: self-aminoacylation
API note: the answer field is a bare number with no unit suffix.

q: Need self-aminoacylation of CUACUUCAAACAAUCGGUUUU [Fam1A.1 aminoacylation ribozyme variant] , thanks.
a: 0.931

q: Need self-aminoacylation of AAGUUUCCUAAUAGUCGCAAG [Fam3.1 aminoacylation ribozyme variant] , thanks.
a: 1.34

q: Need self-aminoacylation of AGUACCCUGGUCAUGGAGUGA [Fam2.1 aminoacylation ribozyme variant] , thanks.
a: 2.7

q: Need self-aminoacylation of AUUACCCUGGCCAUCGGGUGA [Fam2.1 aminoacylation ribozyme variant] , thanks.
a: 8.01

q: Need self-aminoacylation of AUGCUUCAAACAAUCGGUCUG [Fam1A.1 aminoacylation ribozyme variant] , thanks.
a: 2.1

q: Need self-aminoacylation of AUGCACCUAGGUCGUCGGGUG [Fam2.2 aminoacylation ribozyme variant] , thanks.
a: 1.75

q: Need self-aminoacylation of CUACUUCAAACAACGGGUCUG [Fam1A.1 aminoacylation ribozyme variant] , thanks.
a: 0.716

q: Need self-aminoacylation of CUACUUCAAACAAUCGGCCAG [Fam1A.1 aminoacylation ribozyme variant] , thanks.
a: 1.02

q: Need self-aminoacylation of AUUCACCCAGGUCAGCGGGUG [Fam2.2 aminoacylation ribozyme variant] , thanks.
a: 3.76

q: Need self-aminoacylation of AUUCAUCUAGGUCAGCGGGUG [Fam2.2 aminoacylation ribozyme variant] , thanks.
a: 4.17

q: Need self-aminoacylation of CCACACUUCAAGAAAUCGCUC [Fam1B.1 aminoacylation ribozyme variant] , thanks.
a: 1.14

q: Need self-aminoacylation of AACUUCGCUAAUAGUCGCAAG [Fam3.1 aminoacylation ribozyme variant] , thanks.
a: 3.5

q: Need self-aminoacylation of CCACACUUCAAGGACUCGGUC [Fam1B.1 aminoacylation ribozyme variant] , thanks.
a: 1.03

q: Need self-aminoacylation of CCACGUUUCAAGCAAUCGGUC [Fam1B.1 aminoacylation ribozyme variant] , thanks.
a: 2.85

q: Need self-aminoacylation of AAGUUUGCUAUUAGUCCCAAG [Fam3.1 aminoacylation ribozyme variant] , thanks.
a: 0.99

q: Need self-aminoacylation of AAGUCUGCGAAUAGUCGCAAG [Fam3.1 aminoacylation ribozyme variant] , thanks.
a: 1.76

q: Need self-aminoacylation of CCACACUGCAAGCAAUCGCUC [Fam1B.1 aminoacylation ribozyme variant] , thanks.
a: 2.1

q: Need self-aminoacylation of CCGCACUGCAAGCAAUCGGUC [Fam1B.1 aminoacylation ribozyme variant] , thanks.
a: 1.21

q: Need self-aminoacylation of CCACACUUCAAUCAACCGGUC [Fam1B.1 aminoacylation ribozyme variant] , thanks.
a: 0.665

q: Need self-aminoacylation of AAGUUUGCUAAUAAUCGCGAG [Fam3.1 aminoacylation ribozyme variant] , thanks.
a: 0.863

q: Need self-aminoacylation of ACUACCCGGGUCAUCGAGUGA [Fam2.1 aminoacylation ribozyme variant] , thanks.
a: 7.84

q: Need self-aminoacylation of AUUACCCGGGUCACCGAGUGA [Fam2.1 aminoacylation ribozyme variant] , thanks.
a: 19.3

q: Need self-aminoacylation of CCACACUUCAUCCAAUCGGUC [Fam1B.1 aminoacylation ribozyme variant] , thanks.
a: 0.811

q: Need self-aminoacylation of AUUACCCUGGUCGUGGAGUGA [Fam2.1 aminoacylation ribozyme variant] , thanks.
a: 2.19

q: Need self-aminoacylation of AUUCACCUAGGUCAGCGGGGG [Fam2.2 aminoacylation ribozyme variant] , thanks.
a: 5.1

q: Need self-aminoacylation of CUACUUCAAACAAUCGGUAUG [Fam1A.1 aminoacylation ribozyme variant] , thanks.
a: 0.789

q: Need self-aminoacylation of AUUACCGUGGUCAUCGAGUGG [Fam2.1 aminoacylation ribozyme variant] , thanks.
a: 1.85

q: Need self-aminoacylation of CCACACUUCACGCAAUCAGUC [Fam1B.1 aminoacylation ribozyme variant] , thanks.
a: 0.662

q: Need self-aminoacylation of CAACACUUCAGGCAAUCGGUC [Fam1B.1 aminoacylation ribozyme variant] , thanks.
a: 1.12

q: Need self-aminoacylation of AUCCACCUAGGCCAUCGGGUG [Fam2.2 aminoacylation ribozyme variant] , thanks.
a: 3.46

q: Need self-aminoacylation of AAUUUUGCUAACAGUCGCAAG [Fam3.1 aminoacylation ribozyme variant] , thanks.
a: 1.28

q: Need self-aminoacylation of CUUCACCUAGUUCAUCGGGUG [Fam2.2 aminoacylation ribozyme variant] , thanks.
a: 2.54

q: Need self-aminoacylation of AUACACCUAGGUAAUCGGGUG [Fam2.2 aminoacylation ribozyme variant] , thanks.
a: 2.84

q: Need self-aminoacylation of AAUACCCUGGUCAUCCAGUGA [Fam2.1 aminoacylation ribozyme variant] , thanks.
a: 5.25

q: Need self-aminoacylation of CCACACUUCUAGCAAUCGGGC [Fam1B.1 aminoacylation ribozyme variant] , thanks.
a: 1.08

====

test system: biotinyl-Leu-oxazolone; experiment: self-aminoacylation, catalytic enhancement (BLO) (fold over background); higher = more active; k-Seq, kA / k0A0; sequences stand for … in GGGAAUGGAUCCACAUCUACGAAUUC…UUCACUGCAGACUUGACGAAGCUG
Variants at the floor of the assay were thinned out.
Response key: YES means self-aminoacylation >= 2; NO means self-aminoacylation < 2.

q: Check the entry AUUCAACUAGGUCAUCGAGUG [Fam2.2 aminoacylation ribozyme variant] : does self-aminoacylation equal or exceed 2?
a: YES

q: Check the entry GAGAUUGCUAAUAGUCGCAAG [Fam3.1 aminoacylation ribozyme variant] : does self-aminoacylation equal or exceed 2?
a: NO

q: Check the entry AUUUACCUAGGUCAACGGGUG [Fam2.2 aminoacylation ribozyme variant] : does self-aminoacylation equal or exceed 2?
a: YES

q: Check the entry AAGUUGGCAAAUAGUCGCAAG [Fam3.1 aminoacylation ribozyme variant] : does self-aminoacylation equal or exceed 2?
a: NO

q: Check the entry CCACACUCCAAGCAAUCGCUC [Fam1B.1 aminoacylation ribozyme variant] : does self-aminoacylation equal or exceed 2?
a: NO

q: Check the entry AAGUUUGCUAAUGGGCGCAAG [Fam3.1 aminoacylation ribozyme variant] : does self-aminoacylation equal or exceed 2?
a: NO

q: Check the entry CUUACCCUGGACAUCGAGUGA [Fam2.1 aminoacylation ribozyme variant] : does self-aminoacylation equal or exceed 2?
a: YES

q: Check the entry AUUACCCUGAUCACCGAGUGA [Fam2.1 aminoacylation ribozyme variant] : does self-aminoacylation equal or exceed 2?
a: YES

q: Check the entry AGUACCCUGGUCAGCGAGUGA [Fam2.1 aminoacylation ribozyme variant] : does self-aminoacylation equal or exceed 2?
a: YES

====

tested on: biotinyl-Phe-oxazolone; assay: self-aminoacylation, catalytic enhancement (BFO) (fold over background); higher = more active; k-Seq, kA / k0A0; sequences stand for … in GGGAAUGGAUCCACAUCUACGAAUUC…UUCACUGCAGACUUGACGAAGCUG
This sample holds only a part of the variants without activity.
Response key: Y means self-aminoacylation >= 20; N means self-aminoacylation < 20.

q: Check the entry CCUCACUUCGAGCAAUCGGUC [Fam1B.1 aminoacylation ribozyme variant] : does self-aminoacylation equal or exceed 20?
a: N

q: Check the entry AUACUUCAAACAAUCGGUCUU [Fam1A.1 aminoacylation ribozyme variant] : does self-aminoacylation equal or exceed 20?
a: N

q: Check the entry AGUACCCUGGUCAGCGAGUGA [Fam2.1 aminoacylation ribozyme variant] : does self-aminoacylation equal or exceed 20?
a: Y

q: Check the entry AACUUUGCUAAUAGUCGCAAG [Fam3.1 aminoacylation ribozyme variant] : does self-aminoacylation equal or exceed 20?
a: N

q: Check the entry CCACACUUCAAGUGAUCGGUC [Fam1B.1 aminoacylation ribozyme variant] : does self-aminoacylation equal or exceed 20?
a: N

q: Check the entry AAGUAUGCUAAUCGUCGCAAG [Fam3.1 aminoacylation ribozyme variant] : does self-aminoacylation equal or exceed 20?
a: N

q: Check the entry CCGCACUUCAGGCAAUCGGUC [Fam1B.1 aminoacylation ribozyme variant] : does self-aminoacylation equal or exceed 20?
a: N

q: Check the entry AUUCAUCUAGGUCUUCGGGUG [Fam2.2 aminoacylation ribozyme variant] : does self-aminoacylation equal or exceed 20?
a: Y

q: Check the entry CCACUUCAAACAAUCGGGCUG [Fam1A.1 aminoacylation ribozyme variant] : does self-aminoacylation equal or exceed 20?
a: Y

q: Check the entry ACUCACCUCGGUCAUCGGGUG [Fam2.2 aminoacylation ribozyme variant] : does self-aminoacylation equal or exceed 20?
a: Y

q: Check the entry AUUCACCAAGGUCAUAGGGUG [Fam2.2 aminoacylation ribozyme variant] : does self-aminoacylation equal or exceed 20?
a: N

q: Check the entry CUACUUCAAACAAUCCGGCUG [Fam1A.1 aminoacylation ribozyme variant] : does self-aminoacylation equal or exceed 20?
a: N

q: Check the entry UAAUUUGCUAAUAGUCGCAAG [Fam3.1 aminoacylation ribozyme variant] : does self-aminoacylation equal or exceed 20?
a: N

q: Check the entry CUGCAUCAAACAAUCGGUCUG [Fam1A.1 aminoacylation ribozyme variant] : does self-aminoacylation equal or exceed 20?
a: N

q: Check the entry AUUCACGUAGGUCAUCGGGUC [Fam2.2 aminoacylation ribozyme variant] : does self-aminoacylation equal or exceed 20?
a: N

q: Check the entry AUUCUCCUCGGUCAUCGGGUG [Fam2.2 aminoacylation ribozyme variant] : does self-aminoacylation equal or exceed 20?
a: Y

q: Check the entry CUACUUCCAACGAUCGGUCUG [Fam1A.1 aminoacylation ribozyme variant] : does self-aminoacylation equal or exceed 20?
a: N
